Source: patent US12617777B2

Molecular target: human GPR84 receptor (Homo sapiens, UniProt Q9NQS5)
Construct: host or cells: HEK293, transient transfection
Sequence (Q9NQS5 whole entry): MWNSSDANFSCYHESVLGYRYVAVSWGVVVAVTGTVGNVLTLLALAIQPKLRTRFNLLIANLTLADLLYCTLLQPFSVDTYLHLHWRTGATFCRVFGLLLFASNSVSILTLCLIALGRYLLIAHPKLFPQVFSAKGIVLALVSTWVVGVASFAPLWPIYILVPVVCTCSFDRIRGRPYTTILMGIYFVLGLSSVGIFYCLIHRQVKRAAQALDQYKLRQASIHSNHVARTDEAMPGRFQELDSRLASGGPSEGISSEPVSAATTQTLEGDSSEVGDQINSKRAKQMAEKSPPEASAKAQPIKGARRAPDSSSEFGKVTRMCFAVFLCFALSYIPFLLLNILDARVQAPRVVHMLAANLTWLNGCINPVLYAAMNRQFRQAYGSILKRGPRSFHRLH
Test: Gαi biosensor BRET assay in HEK293 cells (antagonism of ZQ-16)
Assay type: cell-based
Conditions: HEK293, single concentration 10 μM (designated F)
Description: Background—The following assays can be used for determination of GPR84 activation in living HEK293 cells. […] Bioluminescence Resonance Energy Transfer (BRET) Measurement—HEK293 cells were transfected with GPR84-Rluc8 and rGFP-FYVE for the EEs trafficking biosensor or with GPR84, Gαi2-Rluc8, GFP10-Gγ2, and Gβ1 for the Gαi biosensor. […] The BRET signal was calculated as the ratio of light emitted by acceptor (GFP10, rGFP) over the light emitted by donor (Rluc8). […]
measured metric: inhibition at 10 µM

Illustrative cases are given below, each with its answer.
Field inhibition at 10 µM (human GPR84 receptor (Homo sapiens, UniProt Q9NQS5)), entry CC1(CO)CN(c2cnc(-c3cn(CC4OCC5(CCC5)O4)nn3)c(OCC(F)(F)F)c2)C1 (centres unmarked) : > 75%

Test item Cc1cc(N2CC(C)(OCc3ccccn3)C2)c(F)cc1-c1cn(CC2CCCCO2)nn1 (centres unmarked) ; human GPR84 receptor (Homo sapiens, UniProt Q9NQS5); reported inhibition at 10 µM was > 75%

Tested on human GPR84 receptor (Homo sapiens, UniProt Q9NQS5), the item C(#CC1CC1)c1ccc(Cc2cn(CC3CCCCO3)nn2)cc1 (centres unmarked) showed inhibition at 10 µM equal to 25 to 50%

Reported human GPR84 receptor (Homo sapiens, UniProt Q9NQS5) inhibition at 10 µM for item CCc1cc(C#CC2CC2)ccc1-c1cn(CC2CCCCO2)nn1 (centres unmarked) was ≤ 25%

human GPR84 receptor (Homo sapiens, UniProt Q9NQS5) assay, compound Cc1cc(N2CCN([C@H](C)c3ccccn3)CC2)ccc1-c1cn(CC2OCC(C)(C)CO2)nn1 , recorded inhibition at 10 µM = > 75%

Others:
Tested on human GPR84 receptor (Homo sapiens, UniProt Q9NQS5): CN(C)c1cc(N2CC(C)(CO)C2)ccc1-c1cn(CC2CC(C)(C)CO2)nn1 (centres unmarked) . Observed inhibition at 10 µM: > 75%

Value (inhibition at 10 µM, human GPR84 receptor (Homo sapiens, UniProt Q9NQS5)) for record Cc1cc(C#CC2CC2)ccc1-c1cn(CC2CN(C)C(=O)O2)nn1 (centres unmarked) = ≤ 25%

Summary line: Cc1cc(N2CCC2)ccc1-c1cn(CC2CCCCO2)nn1 (centres unmarked) , human GPR84 receptor (Homo sapiens, UniProt Q9NQS5), reported inhibition at 10 µM = 50 to 75%

----------
Biological target: human GPR84 receptor (Homo sapiens, UniProt Q9NQS5)
Construct: host or cells: HEK293, transient transfection
Test: Gαi biosensor BRET assay in HEK293 cells (antagonism of ZQ-16)
Format: cell-based
Settings: HEK293, single concentration 10 μM (designated F)
Catalogue of inhibition at 10 µM readings, one per entry.

Cc1ccc(-c2ccc(-c3ncn(CC4CCCCO4)c3C)cc2)cn1 (stereo not shown) has a reported inhibition at 10 µM of 25 to 50%

Continuing:
Reported inhibition at 10 µM ( Cc1cc(C#CC2(O)CC2)ccc1-c1cn(CC2CCCCO2)nn1 (stereo not shown) ) = 50 to 75%

// inhibition at 10 µM lookup, compound = Cc1ccc(C#CC2CC2)cc1C(OCC(F)(F)F)c1cn(CC2OCC(C)(C)CO2)nn1 (stereo not shown) , result: > 75%

Notebook: Cc1cc(C#CC2CC2)ccc1-c1cn(CC2CNCCO2)nn1 (stereo not shown) , inhibition at 10 µM read as ≤ 25%

Reported inhibition at 10 µM for Cc1cc(C#CCN2CC(C)(C)C2)cnc1-c1nnn(CC2OCC(C)(C)CO2)n1 was ≤ 25%

Per the record, Cc1cc(C#CC2CC2)ccc1-c1cn(CC2CCCOC2)nn1 (stereo not shown) has inhibition at 10 µM of 25 to 50%

Record COCc1cc(C#CC2CC2)ccc1-c1cn(CC2CCCCO2)nn1 (stereo not shown) . Reported inhibition at 10 µM: 50 to 75%

For this compound ( Cc1cc(C#CC2CC2)ccc1-c1cn(CC2CCCCO2)nc1C (stereo not shown) ), measured inhibition at 10 µM is ≤ 25%

Reported inhibition at 10 µM ( Cc1cc(Cl)c(N2CC(C)(C)C2)cc1-c1cn(C[C@H]2CCCCO2)nn1 ) = ≤ 25%

Per the records, this compound ( CN1Cc2c(C#CC3CC3)ccc(-c3cn(CC4CCCCO4)nn3)c2C1 (stereo not shown) ) has inhibition at 10 µM equal to ≤ 25%

The measured inhibition at 10 µM associated with CCc1cc(N2CCN(Cc3ccccn3)CC2)cnc1-c1cn(C[C@H]2CCCCO2)nn1 reads > 75%

Form: compound = Cc1cc(N2CC3(COC3)C2)ccc1-c1cn(CC2CCCCO2)nn1 (stereo not shown) ; inhibition at 10 µM = 25 to 50%

Consider CC1(C)COC(Cn2cc(-c3ncc(C#CC4CC4)cc3C(F)F)nn2)OC1 . Its measured inhibition at 10 µM is ≤ 25%

Entry CCN(CC)c1cc(N2CC(C)(CO)C2)ccc1-c1cn(CC2OCC3(CC3)CO2)nn1 ; inhibition at 10 µM = 50 to 75%

So, Cc1cc(N2CC(C)(CN(C)c3ccccn3)C2)ccc1-c1cn(CC2CCCCO2)nn1 (stereo not shown) ? Its inhibition at 10 µM was > 75%

The recorded inhibition at 10 µM for entry COC(c1cccc(C#CCO)c1)c1cn(CC2CCCCO2)nn1 (stereo not shown) equals ≤ 25%

----------
Target: human GPR84 receptor (Homo sapiens, UniProt Q9NQS5)
Construct: host or cells: HEK293, transient transfection
Assay: Gαi biosensor BRET assay in HEK293 cells (antagonism of ZQ-16)
Assay type: cell-based
Settings: HEK293, single concentration 5 μM (designated D)
measured metric: inhibition at 5 µM

Query Cc1cc(N2CCC3(CC2)CNC3)ccc1-c1cn(CC2CCCCO2)nn1 (centres unmarked) on human GPR84 receptor (Homo sapiens, UniProt Q9NQS5); inhibition at 5 µM returned: ≤ 25%

Further cases:
So the reported inhibition at 5 µM for Cc1cc(C#CC2CC2)ccc1-c1cn(C[C@H]2CCCCO2)nn1 , on human GPR84 receptor (Homo sapiens, UniProt Q9NQS5), turned out to be 50 to 75%

Record for Cc1cc(C#CCNc2ccccc2)ccc1-c1cn(CC2CCCCO2)nn1 (centres unmarked) under target or system human GPR84 receptor (Homo sapiens, UniProt Q9NQS5): inhibition at 5 µM reported as 50 to 75%

Note to self: inhibition at 5 µM of Cc1c(-c2ccc(OCc3ccccc3)cc2)nnn1CC1CCCCO1 (centres unmarked) with human GPR84 receptor (Homo sapiens, UniProt Q9NQS5) was ≤ 25%

Lab entry: human GPR84 receptor (Homo sapiens, UniProt Q9NQS5) assay, molecule Cn1cc(-c2ccc(C#CC3CC3)cc2)nc1CC1CCCCO1 (centres unmarked) , inhibition at 5 µM = ≤ 25%

----------
Target: human GPR84 receptor (Homo sapiens)
Construct: host or cells: HEK293, transient transfection
Experiment: Gαi biosensor BRET assay in HEK293 cells (antagonism of ZQ-16)
Type: cell-based
Conditions: HEK293, single concentration 10 μM (designated F)
Recorded inhibition at 10 µM, one value per entry.

Field: example entries. Status: answers known.
Record Cc1cc(N2CCC[C@H](N(C)Cc3ccccc3)C2)ccc1-c1cn(C[C@H]2CCCCO2)nn1 (stereo in doubt) , field inhibition at 10 µM: > 75%

Measured inhibition at 10 µM, COCC#Cc1cnc(-c2cn(CC3OCC4(CC4)CO3)nn2)c(OC2CC2)c1 : ≤ 25%

In plain terms, Cc1cc(N2CCN(C(C)c3ccccn3)CC2)ccc1-c1cn(CC2OCC(C)(C)CO2)nn1 (centres unmarked) has a documented inhibition at 10 µM of > 75%

compound Cc1cc(NC(=O)C2CC2)ccc1-c1cn(CC2CCCCO2)nn1 (centres unmarked) , inhibition at 10 µM observed: 25 to 50%

So, Cc1cc(N2CC(C)(C#N)C2)ccc1-c1cn(CC2CCCCO2)nn1 (centres unmarked) ? Its inhibition at 10 µM was 25 to 50%

Next:
# compound COC(c1cn(CC2Oc3ccccc3O2)nn1)c1cc(C#CC2CC2)ccc1C (centres unmarked) ; its inhibition at 10 µM = > 75%

Entry CCOc1cc(C#CCOC)cnc1-c1cn(CC2OCC(C)(C)CO2)nn1 , inhibition at 10 µM reported as ≤ 25%

Per the records, this compound ( C=C(c1cncc(C#CC2CC2)c1)c1cn(CC2CCCCO2)nn1 (centres unmarked) ) has inhibition at 10 µM equal to 25 to 50%

----------
# inhibition at 10 µM values compiled below
Molecular target: human GPR84 receptor (Homo sapiens, UniProt Q9NQS5)
Construct: host or cells: HEK293, transient transfection
Assay: Gαi biosensor BRET assay in HEK293 cells (antagonism of ZQ-16)
Format: cell-based
Conditions: HEK293, single concentration 10 μM (designated F)

Note to self: inhibition at 10 µM recorded for Cc1cc(N2CCN([C@@H](C)c3ccccn3)CC2)ccc1-c1cn(C[C@H]2CCCCO2)nn1 was > 75%

So for Cc1cc(N2CCC(Cc3ccccn3)CC2)cnc1-c1cn(CC2CCCCO2)nn1 (centres unmarked) , the logged inhibition at 10 µM turned out to be > 75%

Lab note: Cc1cc(N2CC(CO)C2)ccc1-c1cn(CC2CCCCO2)nn1 (centres unmarked) gave inhibition at 10 µM of > 75%

// sample COCC(=O)N1CCCCC1Cn1cc(-c2ccc(C#CC3CC3)cc2C)nn1 (centres unmarked) , its inhibition at 10 µM was ≤ 25%

# compound Cc1cc(-c2cn(CC3CCCCO3)nn2)nnc1C#CC1CC1 (centres unmarked) ; its inhibition at 10 µM = ≤ 25%

For this compound ( CCOCC#Cc1cnc(-c2cn(CC3OCC(C)(C)CO3)nn2)c(OC(C)C)c1 ), measured inhibition at 10 µM is 50 to 75%

For this compound ( Cc1cc(C#CC2COC2)ccc1-c1cn(CC2CCCCO2)nn1 (centres unmarked) ), measured inhibition at 10 µM is 50 to 75%

Notebook: Cc1cc(C#CCNc2ccccc2)ccc1-c1cn(C[C@@H]2CCCCO2)nn1 (stereo in doubt) , inhibition at 10 µM read as ≤ 25%

Field inhibition at 10 µM (entry CC(C)c1cc(N2CC(C)(C)C2)cnc1-c1cn(CC2CCCCO2)nn1 (centres unmarked) ) reads > 75%
